Assay: in vitro
Settings: human, Caco-2
reported_metric: Papp B→A (nm/s)
Numbers only here, please. The scale is nm/s.

The compound CNC(=C[N+](=O)[O-])NCCSCc1ccc(CN(C)C)o1 [Ranitidine] showed Papp B→A equal to 15

The compound COCCc1ccc(OCC(O)CNC(C)C)cc1 (centres unmarked) [Metoprolol] showed Papp B→A equal to 300

----------
Assay: in vitro
Conditions: human, Caco-2
Kindly state Papp A→B for each of the entries shown.
Numbers only here, please. The scale is nm/s.

The molecule `CNC(=C[N+](=O)[O-])NCCSCc1ccc(CN(C)C)o1` showed Papp A→B equal to 3

The molecule COCCc1ccc(OCC(O)CNC(C)C)cc1 (centres unmarked) showed Papp A→B equal to 116
